- target-desc: glucan synthase (GS) prepared from Candida albicans MY1055 (Candida albicans)
- experiment-notes: Glucan synthase inhibition (polymerization assay, 96-well)
- Format: biochemical
- condition-details: GS from C. albicans MY1055; 60 min incubation at 22° C.; read-out: Candida Albicans GS IC50 (converted)
assay-metric: IC50
Please answer using the number first and the unit second.

In the examples that follow, each entry is paired with its recorded IC50.
1. CN[C@@](C)(CO[C@H]1[C@H](n2ncnc2C2=NCCCN2)C[C@@]23COC[C@]1(C)[C@@H]2CC[C@H]1C3=CC[C@@]2(C)[C@H](C(=O)O)[C@@](C)([C@H](C)C(C)C)CC[C@]12C)C(C)(C)C	12 nM
2. CC(C)[C@@H](C)[C@@]1(C)CC[C@]2(C)[C@H]3CC[C@@H]4[C@@]5(COC[C@@]4(C)[C@@H](OC[C@](C)(N)C(C)C)[C@H](n4nc(N)nc4C(N)=O)C5)C3=CC[C@@]2(C)[C@@H]1C(=O)O	12.9 nM
3. CC(C)[C@@H](C)[C@@]1(C)CC[C@]2(C)[C@H]3CC[C@@H]4[C@@]5(COC[C@@]4(C)[C@@H](OC[C@](C)(N)C(C)C)[C@H](n4nccn4)C5)C3=CC[C@@]2(C)[C@@H]1C(=O)O (single isomer, unassigned) [Example 288B]	17.2 nM

API: the following record is the query input.
Q. Give its IC50 value. Item: CN[C@@](C)(CO[C@H]1[C@H](n2ncnc2C(=O)NCCF)C[C@@]23COC[C@]1(C)[C@@H]2CC[C@H]1C3=CC[C@@]2(C)[C@H](C(=O)O)[C@@](C)([C@H](C)C(C)C)CC[C@]12C)C(C)C
A. 8.09 nM

---

- target-desc: glucan synthase (GS) prepared from Candida albicans MY1055 (Candida albicans, UniProt O13428)
- Sequence (O13428 1-1897): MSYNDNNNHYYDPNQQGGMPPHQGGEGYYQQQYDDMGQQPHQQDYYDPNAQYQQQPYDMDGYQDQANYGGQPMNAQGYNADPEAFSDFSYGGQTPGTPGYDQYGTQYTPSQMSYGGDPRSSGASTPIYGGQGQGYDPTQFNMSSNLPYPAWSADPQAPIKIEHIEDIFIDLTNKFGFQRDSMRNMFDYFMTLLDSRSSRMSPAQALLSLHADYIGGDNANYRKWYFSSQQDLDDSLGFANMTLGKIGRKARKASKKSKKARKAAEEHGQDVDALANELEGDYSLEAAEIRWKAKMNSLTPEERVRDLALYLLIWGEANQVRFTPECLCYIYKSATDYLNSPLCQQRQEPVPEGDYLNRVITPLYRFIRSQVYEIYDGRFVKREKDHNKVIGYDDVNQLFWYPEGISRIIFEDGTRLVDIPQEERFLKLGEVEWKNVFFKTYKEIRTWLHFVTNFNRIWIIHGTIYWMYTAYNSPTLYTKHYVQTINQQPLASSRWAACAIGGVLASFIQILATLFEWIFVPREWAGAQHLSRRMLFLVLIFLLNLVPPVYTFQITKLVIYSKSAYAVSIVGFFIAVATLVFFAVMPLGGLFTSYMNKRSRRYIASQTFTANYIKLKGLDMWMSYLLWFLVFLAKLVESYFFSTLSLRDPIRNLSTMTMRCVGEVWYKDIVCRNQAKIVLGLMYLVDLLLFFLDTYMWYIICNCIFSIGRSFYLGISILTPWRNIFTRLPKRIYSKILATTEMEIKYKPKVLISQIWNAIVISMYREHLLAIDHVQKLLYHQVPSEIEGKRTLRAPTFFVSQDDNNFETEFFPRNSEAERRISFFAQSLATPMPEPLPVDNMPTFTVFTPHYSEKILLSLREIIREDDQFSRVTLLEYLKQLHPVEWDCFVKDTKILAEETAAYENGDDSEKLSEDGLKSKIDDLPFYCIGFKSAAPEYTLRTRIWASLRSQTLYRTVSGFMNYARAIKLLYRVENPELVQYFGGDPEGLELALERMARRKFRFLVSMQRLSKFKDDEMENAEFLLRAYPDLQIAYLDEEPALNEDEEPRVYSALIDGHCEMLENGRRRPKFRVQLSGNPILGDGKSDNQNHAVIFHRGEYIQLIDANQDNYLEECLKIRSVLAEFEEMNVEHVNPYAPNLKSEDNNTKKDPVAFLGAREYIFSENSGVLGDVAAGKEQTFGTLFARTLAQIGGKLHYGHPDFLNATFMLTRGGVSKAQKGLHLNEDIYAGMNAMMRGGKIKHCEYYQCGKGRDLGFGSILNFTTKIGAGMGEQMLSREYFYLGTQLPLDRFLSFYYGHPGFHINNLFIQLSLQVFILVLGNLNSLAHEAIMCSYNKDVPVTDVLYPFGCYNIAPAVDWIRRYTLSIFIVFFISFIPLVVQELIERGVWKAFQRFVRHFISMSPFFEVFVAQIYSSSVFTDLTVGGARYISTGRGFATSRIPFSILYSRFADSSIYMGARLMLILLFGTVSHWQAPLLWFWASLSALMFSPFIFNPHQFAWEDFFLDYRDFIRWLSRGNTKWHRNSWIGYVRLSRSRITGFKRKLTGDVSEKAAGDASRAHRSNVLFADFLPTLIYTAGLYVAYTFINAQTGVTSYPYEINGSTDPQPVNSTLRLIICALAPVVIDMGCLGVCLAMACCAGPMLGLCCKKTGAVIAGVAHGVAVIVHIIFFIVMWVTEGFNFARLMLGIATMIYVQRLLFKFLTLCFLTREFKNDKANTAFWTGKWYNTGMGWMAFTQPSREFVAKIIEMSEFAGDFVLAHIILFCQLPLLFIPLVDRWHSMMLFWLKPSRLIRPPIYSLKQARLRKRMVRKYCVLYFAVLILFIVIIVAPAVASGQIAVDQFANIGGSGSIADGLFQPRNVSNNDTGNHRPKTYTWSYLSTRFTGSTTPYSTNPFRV
- experiment-notes: Glucan synthase inhibition (polymerization assay, 96-well)
- Assay type: biochemical
- condition-details: GS from C. albicans MY1055; 60 min incubation at 22° C.; read-out: Candida Albicans GS IC50 (converted)
- Description: The in vitro evaluation of glucan synthase inhibitory activity of compounds was measured in a polymerization assay in 96-well format. […] 40 μL/well scintillation fluid (Packard ULTIMA GOLD TM-XR) was added and the sealed plates counted in a WALLAC BETA counter in top-counting mode at an efficiency of approximately 40%. […]
Please assign false whenever IC50 is at or above 20 nM, and true whenever it is below.

1. CC(C)[C@@H](C)[C@@]1(C)CC[C@]2(C)[C@H]3CC[C@@H]4[C@@]5(COC[C@@]4(C)[C@@H](OCC4COCCN4)[C@H](n4ncnc4-c4ccncc4)C5)C3=CC[C@@]2(C)[C@@H]1C(=O)O (single isomer, unassigned) [Example 303A]	false
2. CC(C)[C@@H](C)[C@@]1(C)CC[C@]2(C)[C@H]3CC[C@@H]4[C@@]5(COC[C@@]4(C)[C@@H](OC[C@](C)(N)C(C)C)[C@H](n4ncnc4-c4ccc6ccccc6c4)C5)C3=CC[C@@]2(C)[C@@H]1C(=O)O	false
3. CNC(=O)c1ncnn1[C@@H]1C[C@@]23COC[C@](C)([C@@H]2CC[C@H]2C3=CC[C@@]3(C)[C@H](C(=O)O)[C@@](C)([C@H](C)C(C)C)CC[C@]23C)[C@H]1OC[C@](C)(N)C(C)(C)C	true
4. CN[C@@](C)(CO[C@H]1[C@H](n2ncnc2-c2cccs2)C[C@@]23COC[C@]1(C)[C@@H]2CC[C@H]1C3=CC[C@@]2(C)[C@H](C(=O)O)[C@@](C)([C@H](C)C(C)C)CC[C@]12C)C(C)C	true
5. CC(C)[C@@H](C)[C@@]1(C)CC[C@]2(C)[C@H]3CC[C@@H]4[C@@]5(COC[C@@]4(C)[C@@H](OC[C@](C)(N)C(C)C)[C@H](n4ncnc4-n4cncn4)C5)C3=CC[C@@]2(C)[C@@H]1C(=O)O	true
6. CCNC(=O)c1ccnn1[C@@H]1C[C@@]23COC[C@](C)([C@@H]2CC[C@H]2C3=CC[C@@]3(C)[C@H](C(=O)O)[C@@](C)([C@H](C)C(C)C)CC[C@]23C)[C@H]1OC[C@](C)(N)C(C)C	false

Q. Say whether its IC50 is strictly beneath 20 nM. Entry: CC(C)[C@@H](C)[C@@]1(C)CC[C@]2(C)[C@H]3CC[C@@H]4[C@@]5(COC[C@@]4(C)[C@@H](OCC(C)(C(C)C)N(C)C)[C@H](n4cnc(Cl)n4)C5)C3=CC(=O)[C@@]2(C)[C@@H]1C(=O)O (stereo partly drawn)
A. false

Q. Say whether its IC50 is strictly beneath 20 nM. Entry: CC(C)[C@@H](C)[C@@]1(C)CC[C@]2(C)[C@H]3CC[C@@H]4[C@@]5(COC[C@@]4(C)[C@@H](OC[C@](C)(N)C(C)(C)C)[C@H](n4ncnc4-c4ccc(C(=O)O)cc4)C5)C3=CC[C@@]2(C)[C@@H]1C(=O)O
A. true

Q. Say whether its IC50 is strictly beneath 20 nM. Entry: CC(C)[C@@H](C)[C@@]1(C)CC[C@]2(C)[C@H]3CC[C@@H]4[C@@]5(COC[C@@]4(C)[C@@H](OC[C@@](C)(C(C)C)N(C)C)[C@H](n4cncn4)C5)C3=CC[C@@]2(C)[C@@H]1C(=O)O
A. true
